Test system: DLD-1
protocol: Cytotoxicity against human DLD1 cells after 96 hrs by SRB assay
Assay type: functional, cell-based
measured_parameter: IC50

* COC(=O)[C@@]1(C)CC[C@]2(C)CC[C@]3(C)C(=CC(=O)[C@@H]4[C@@]5(C)CC[C@H](OS(=O)(=O)c6ccc(C)cc6)C(C)(C)[C@@H]5CC[C@]43C)[C@@H]2C1 | > 30 µmol
* COC(=O)[C@@]1(C)CC[C@]2(C)CC[C@]3(C)C(=CC(=O)[C@@H]4[C@@]5(C)CC[C@H](OC(=O)[C@H](CSC(=O)OC(C)(C)C)NC(=O)OC(C)(C)C)C(C)(C)[C@@H]5CC[C@]43C)[C@@H]2C1 | > 30 µmol
* COC(=O)[C@@]1(C)CC[C@]2(C)CC[C@]3(C)C(=CC(=O)[C@@H]4[C@@]5(C)CC[C@H](OC(=O)[C@H](CSCc6ccccc6)NC(=O)OC(C)(C)C)C(C)(C)[C@@H]5CC[C@]43C)[C@@H]2C1 | > 30 µmol

###

Tested on: DLD-1
protocol: Cytotoxicity against human DLD1 cells after 96 hrs by SRB assay
Type: functional, cell-based
Form field: IC50 (one value per entry).
measured_parameter: IC50

• C=C(C)[C@@H]1CC[C@]2(C)[C@H](C(=O)C=C3[C@@H]4C[C@@](C)(C(=O)OCC)CC[C@]4(C)CC[C@]32C)[C@@]1(C)CCC(=O)O = > 30 µmol
• C=C(C)[C@@H]1CC[C@]2(C)[C@H](C(=O)C=C3[C@@H]4C[C@@](C)(C(=O)OCC)CC[C@]4(C)CC[C@]32C)[C@@]1(C)CCC(=O)OCC = > 30 µmol
• COC(=O)[C@@]1(C)CC[C@]2(C)CC[C@]3(C)C(=CC(=O)[C@@H]4[C@@]5(C)CC/C(=N\O)C(C)(C)[C@@H]5CC[C@]43C)[C@@H]2C1 = 10.46 µmol
• COC(=O)[C@@]1(C)CC[C@]2(C)CC[C@]3(C)C(=CC(=O)[C@@H]4[C@@]5(C)CC[C@@H](N)C(C)(C)[C@@H]5CC[C@]43C)[C@@H]2C1 = 3.21 µmol
• COC(=O)[C@@]1(C)CC[C@]2(C)CC[C@]3(C)C(=CC(=O)[C@@H]4[C@@]5(C)CC[C@H](OC(=O)[C@@H](N)CSSC[C@H](N)C(=O)O[C@H]6CC[C@]7(C)[C@H]8C(=O)C=C9[C@@H]%10C[C@@](C)(C(=O)OC)CC[C@]%10(C)CC[C@@]9(C)[C@]8(C)CC[C@H]7C6(C)C)C(C)(C)[C@@H]5CC[C@]43C)[C@@H]2C1 = > 30 µmol
• CCOC(=O)[C@@]1(C)CC[C@]2(C)CC[C@]3(C)C(=CC(=O)[C@@H]4[C@@]5(C)C[C@H]6O[C@H]6C(C)(C)[C@@H]5CC[C@]43C)[C@@H]2C1 = > 30 µmol
• CCCCCCCCO/N=C1\CC[C@]2(C)[C@H]3C(=O)C=C4[C@@H]5C[C@@](C)(C(=O)OC)CC[C@]5(C)CC[C@@]4(C)[C@]3(C)CC[C@H]2C1(C)C = > 30 µmol
• COC(=O)[C@@]1(C)CC[C@]2(C)CC[C@]3(C)C(=CC(=O)[C@@H]4[C@@]5(C)CCC(=O)C(C)(C)[C@@H]5CC[C@]43C)[C@@H]2C1 = > 30 µmol
• CCOC(=O)[C@@]1(C)CC[C@]2(C)CC[C@]3(C)C(=CC(=O)[C@@H]4[C@@]5(C)CCC(=O)OC(C)(C)[C@@H]5CC[C@]43C)[C@@H]2C1 = > 30 µmol
• COC(=O)[C@@]1(C)CC[C@]2(C)CC[C@]3(C)C(=CC(=O)[C@@H]4[C@@]5(C)Cc6nccnc6C(C)(C)[C@@H]5CC[C@]43C)[C@@H]2C1 = > 30 µmol

###

protocol: Cytotoxicity against human 518A2 cells after 96 hrs by SRB assay
Format: functional, cell-based
measured_parameter: IC50 (µmol)

- COC(=O)[C@@]1(C)CC[C@]2(C)CC[C@]3(C)C(=CC(=O)[C@@H]4[C@@]5(C)CC[C@H](OC(=O)[C@@H](N)CSSC[C@H](N)C(=O)O[C@H]6CC[C@]7(C)[C@H]8C(=O)C=C9[C@@H]%10C[C@@](C)(C(=O)OC)CC[C@]%10(C)CC[C@@]9(C)[C@]8(C)CC[C@H]7C6(C)C)C(C)(C)[C@@H]5CC[C@]43C)[C@@H]2C1: 24.54

###

Tested on: DLD-1
protocol: Cytotoxicity against human DLD1 cells after 96 hrs by SRB assay
Type: functional, cell-based
measured_parameter: IC50

• CCOC(=O)[C@@]1(C)CC[C@]2(C)CC[C@]3(C)C(=CC(=O)[C@@H]4[C@@]5(C)CC[C@H](OC(=O)CCC(=O)O)C(C)(C)[C@@H]5CC[C@]43C)[C@@H]2C1 = > 30 µmol
• COC(=O)[C@@]1(C)CC[C@]2(C)CC[C@]3(C)C(=CC(=O)[C@@H]4[C@@]5(C)CC/C(=N\OC(=O)[C@H](C)NC(=O)OC(C)(C)C)C(C)(C)[C@@H]5CC[C@]43C)[C@@H]2C1 = 19.1 µmol
• CCOC(=O)[C@@]1(C)CC[C@]2(C)CC[C@]3(C)C(=CC(=O)[C@@H]4[C@@]5(C)CC=CC(C)(C)[C@@H]5CC[C@]43C)[C@@H]2C1 = > 30 µmol
• CC1(C)C(=O)CC[C@]2(C)[C@H]3C(=O)C=C4[C@@H]5C[C@@](C)(C(=O)O)CC[C@]5(C)CC[C@@]4(C)[C@]3(C)CC[C@@H]12 = > 30 µmol
• CCOC(=O)[C@@]1(C)CC[C@]2(C)CC[C@]3(C)C(=CC(=O)[C@@H]4[C@@]5(C)CCC(=O)C(C)(C)[C@@H]5CC[C@]43C)[C@@H]2C1 = > 30 µmol

###

Attribute: IC50
protocol: Cytotoxicity against human 518A2 cells after 96 hrs by SRB assay
Format: functional, cell-based
measured_parameter: IC50

• CCOC(=O)[C@@]1(C)CC[C@]2(C)CC[C@]3(C)C(=CC(=O)[C@@H]4[C@@]5(C)C[C@H]6O[C@H]6C(C)(C)[C@@H]5CC[C@]43C)[C@@H]2C1 = > 30 µmol
• C=C(C)[C@@H]1CC[C@]2(C)[C@H](C(=O)C=C3[C@@H]4C[C@@](C)(C(=O)OCC)CC[C@]4(C)CC[C@]32C)[C@@]1(C)CCC(=O)O = > 30 µmol
• CCOC(=O)[C@@]1(C)CC[C@]2(C)CC[C@]3(C)C(=CC(=O)[C@@H]4[C@@](C)(CCC(=O)O)[C@H](C(C)(C)O)CC[C@]43C)[C@@H]2C1 = > 30 µmol
• COC(=O)[C@@]1(C)CC[C@]2(C)CC[C@]3(C)C(=CC(=O)[C@@H]4[C@@]5(C)CC/C(=N\OC(=O)[C@H](C)NC(=O)OC(C)(C)C)C(C)(C)[C@@H]5CC[C@]43C)[C@@H]2C1 = 16.49 µmol
• COC(=O)[C@@]1(C)CC[C@]2(C)CC[C@]3(C)C(=CC(=O)[C@@H]4[C@@]5(C)CC[C@H](OC(=O)[C@H](CO[Si](C)(C)C(C)(C)C)NC(=O)OC(C)(C)C)C(C)(C)[C@@H]5CC[C@]43C)[C@@H]2C1 = > 30 µmol

###

System: DLD-1
protocol: Cytotoxicity against human DLD1 cells after 96 hrs by SRB assay
Assay type: functional, cell-based
Listed compounds paired with reported IC50
measured_parameter: IC50

* CC1(C)[C@@H](OC(=O)CNCCCN)CC[C@]2(C)[C@H]3C(=O)C=C4[C@@H]5C[C@@](C)(C(=O)OCc6ccccc6)CC[C@]5(C)CC[C@@]4(C)[C@]3(C)CC[C@@H]12 | 4.96 µmol
* COC(=O)[C@@]1(C)CC[C@]2(C)CC[C@]3(C)C(=CC(=O)[C@@H]4[C@@]5(C)CC[C@H](NC(=O)[C@H](C)N)C(C)(C)[C@@H]5CC[C@]43C)[C@@H]2C1 | 6.44 µmol
* CCOC(=O)[C@@]1(C)CC[C@]2(C)CC[C@]3(C)C(=CC(=O)[C@@H]4[C@@]5(C)C[C@H](F)[C@@H](O)C(C)(C)[C@@H]5CC[C@]43C)[C@@H]2C1 | > 30 µmol
* COC(=O)[C@@]1(C)CC[C@]2(C)CC[C@]3(C)C(=CC(=O)[C@@H]4[C@@]5(C)CC[C@H](OC(=O)[C@@H](N)CSCc6ccccc6)C(C)(C)[C@@H]5CC[C@]43C)[C@@H]2C1 | > 30 µmol
* COC(=O)[C@@]1(C)CC[C@]2(C)CC[C@]3(C)C(=CC(=O)[C@@H]4[C@@]5(C)CC/C(=N\OC(C)C)C(C)(C)[C@@H]5CC[C@]43C)[C@@H]2C1 | > 30 µmol
* COC(=O)[C@@]1(C)CC[C@]2(C)CC[C@]3(C)C(=CC(=O)[C@@H]4[C@@]5(C)CC[C@H](OC(=O)[C@H](CO[Si](C)(C)C(C)(C)C)NC(=O)OC(C)(C)C)C(C)(C)[C@@H]5CC[C@]43C)[C@@H]2C1 | > 30 µmol
* CCOC(=O)[C@@]1(C)CC[C@]2(C)CC[C@]3(C)C(=CC(=O)[C@@H]4[C@@](C)(CCC(=O)O)[C@H](C(C)(C)O)CC[C@]43C)[C@@H]2C1 | > 30 µmol
* COC(=O)[C@@]1(C)CC[C@]2(C)CC[C@]3(C)C(=CC(=O)[C@@H]4[C@@]5(C)CC[C@H](OC(=O)CCC(=O)O)C(C)(C)[C@@H]5CC[C@]43C)[C@@H]2C1 | > 30 µmol
* CC1(C)[C@H](O)CC[C@]2(C)[C@H]3C(=O)C=C4[C@@H]5C[C@@](C)(C(=O)O)CC[C@]5(C)CC[C@@]4(C)[C@]3(C)CC[C@@H]12 | > 30 µmol
* COC(=O)[C@@]1(C)CC[C@]2(C)CC[C@]3(C)C(=CC(=O)[C@@H]4[C@@]5(C)CC[C@H](N)C(C)(C)[C@@H]5CC[C@]43C)[C@@H]2C1 | 2.56 µmol
